Exercise: state measured cytotoxicity at 70.5 h for each of the compounds provided.
- EXPERIMENT_DESCRIPTION: Human HepG2 cell viability assay in 384 well format
- Type: toxicity, cell-based
- Design: dose 125 nL, time 70.5 hour; concentration not given beside the values
- ASSAY_SETUP: HepG2 cells, read-out: Inhibition
# number only, unit % dropped from output

Annotate the compound COc1c(CNCCc2c[nH]c3ccccc23)c(C)nn1C with its measured cytotoxicity at 70.5 h.
22.7

Annotate the compound CCOC(=O)CCn1cnc2onc(-c3ccc(OC)cc3)c2c1=O with its measured cytotoxicity at 70.5 h.
35.2

Annotate the compound Cc1ccc(CN2CC[C@@H]3[C@H]2CCC(=O)N3Cc2ccncc2)s1 with its measured cytotoxicity at 70.5 h.
21

Annotate the compound CCCS(=O)(=O)N1CC[C@H]2O[C@H](c3nnc(C)o3)CC[C@H]21 with its measured cytotoxicity at 70.5 h.
11.3

Annotate the compound O=C(O)c1ccccc1CN1CCOC(CCc2ccncn2)C1 (stereo not drawn) with its measured cytotoxicity at 70.5 h.
-4.46

Annotate the compound CN(C)C(=O)NC1COC2(CCN(Cc3ccc(N(C)C)cc3)CC2)C1 (stereo not drawn) with its measured cytotoxicity at 70.5 h.
-2.99

Annotate the compound CN(C)CCN(Cc1ccco1)C(=O)Cc1cn2ccsc2n1 with its measured cytotoxicity at 70.5 h.
-3.81

Annotate the compound N#Cc1ccc(N2CCC3(CCC(=O)N3Cc3cccnc3)CC2)nc1 with its measured cytotoxicity at 70.5 h.
-5.74

Annotate the compound Cc1cc(C)cc(OCC(=O)N2CCC2)c1 with its measured cytotoxicity at 70.5 h.
-22.1

Annotate the compound CCc1cc(CNC(=O)N2Cc3ccccc3N(C)CC2C)on1 (stereo not drawn) with its measured cytotoxicity at 70.5 h.
3.84

Annotate the compound COC(C)(C)CNC(=O)N1CCCC1c1c(C)n[nH]c1C (stereo not drawn) with its measured cytotoxicity at 70.5 h.
-13.9

Annotate the compound CC(=O)N(C)Cc1ncn2c1CN(C(=O)CC1CC1)CCC2 with its measured cytotoxicity at 70.5 h.
-9.44

Annotate the compound O=S(=O)(N1CCCCC1)N1CCc2nc(C3CCNCC3)ncc2C1 with its measured cytotoxicity at 70.5 h.
-13.5

Annotate the compound COCc1ccc(C(=O)N2CCC(Oc3ccccc3)(C(=O)O)CC2)o1 with its measured cytotoxicity at 70.5 h.
17.3

Annotate the compound CN(C)CCN(C)C(=O)Nc1cc(F)cc(N2CCCC2)c1 with its measured cytotoxicity at 70.5 h.
-6.32

Annotate the compound CCCc1n[nH]c(C2CN(C(=O)Cn3ccccc3=O)CCO2)n1 (stereo not drawn) with its measured cytotoxicity at 70.5 h.
-4.93

Annotate the compound CC(=O)NCCCSCCOc1cccc(C#N)c1 with its measured cytotoxicity at 70.5 h.
2.91

Annotate the compound Cc1noc(-c2ccnc(N3CCC(CN4CCOCC4)CC3)c2)n1 with its measured cytotoxicity at 70.5 h.
11

* * *

- EXPERIMENT_DESCRIPTION: Human HepG2 cell viability assay in 384 well format
- Assay type: toxicity, cell-based
- Set-up: dose 125 nL, time 70.5 hour; concentration not given beside the values
- ASSAY_SETUP: HepG2 cells, read-out: Inhibition
QUANTITY_NAME: cytotoxicity at 70.5 h (%)
# number only, unit % dropped from output

Annotate the compound CNC(=O)[C@H]1C[C@@H]2CN(Cc3cccc(C)c3)C[C@H]1O2 with its measured cytotoxicity at 70.5 h.
-6.34

Annotate the compound CS(=O)(=O)N1CC(c2ccnc(Nc3ccccn3)n2)C1 with its measured cytotoxicity at 70.5 h.
-3.95

Annotate the compound O=C(CCO)N1CCOC2(CCCN(C(=O)c3ccco3)C2)C1 (stereo not drawn) with its measured cytotoxicity at 70.5 h.
-7.04

Annotate the compound CC1CN(C)c2ccccc2CN1C(=O)CSc1ccncc1 (stereo not drawn) with its measured cytotoxicity at 70.5 h.
1.51

Annotate the compound NC(=O)c1ccc(C2CN(Cc3ccc(F)cc3)CCO2)nc1 (stereo not drawn) with its measured cytotoxicity at 70.5 h.
27.6

Annotate the compound CCN(CC)C(=O)c1nnn(-c2ccc(C)cc2)c1C1CC1 with its measured cytotoxicity at 70.5 h.
-7.41

Annotate the compound Cc1cccc(-c2noc(CN3CC(n4cc(C)cn4)C3)n2)c1 with its measured cytotoxicity at 70.5 h.
-5.31

Annotate the compound N#Cc1ccc(N2CCC3(CCCN(c4ccccn4)C3)C2)nc1 (stereo not drawn) with its measured cytotoxicity at 70.5 h.
-1.5

* * *

- EXPERIMENT_DESCRIPTION: Human HepG2 cell viability assay in 384 well format
- Format: toxicity, cell-based
- Design: dose 125 nL, time 70.5 hour; concentration not given beside the values
- ASSAY_SETUP: HepG2 cells, read-out: Inhibition
QUANTITY_NAME: cytotoxicity at 70.5 h
Answer with the value and then the unit.

Annotate the compound C=Cn1ncc(CN2CCC(c3ncc(Cl)cc3S(C)(=O)=O)CC2)c1C with its measured cytotoxicity at 70.5 h.
10%

Annotate the compound CC(C)N(C)[C@@H]1CCN(C(=O)c2ccc[nH]2)[C@H]1Cc1cnn(C)c1 with its measured cytotoxicity at 70.5 h.
-8.9%

Annotate the compound Cc1cnn(CCC(=O)N(CC2CN(C)CCO2)c2nccs2)c1 (stereo not given) with its measured cytotoxicity at 70.5 h.
-12.8%

Annotate the compound O=C(NCCNc1ccccn1)NC1CCCC1 with its measured cytotoxicity at 70.5 h.
-4.33%

Annotate the compound COc1c(Cl)cc(Cl)cc1CN1CCC(C(N)=O)C1 (stereo not given) with its measured cytotoxicity at 70.5 h.
8.49%

Annotate the compound Cc1ccc(F)c2c1N(C(=O)c1ccc(S(C)(=O)=O)cc1)CCC2 with its measured cytotoxicity at 70.5 h.
-10.6%

Annotate the compound Cc1nc(C)n(CC2CCCN2CC(=O)Nc2ccncc2)n1 (stereo not given) with its measured cytotoxicity at 70.5 h.
-4.71%

Annotate the compound Cc1nc(C)c(S(=O)(=O)NC(=O)c2sccc2C)s1 with its measured cytotoxicity at 70.5 h.
-14.3%

Annotate the compound CN(C)c1ncccc1C(=O)N1CCCC1Cn1cccn1 (stereo not given) with its measured cytotoxicity at 70.5 h.
-5.68%

Annotate the compound Cc1nnc(CN(Cc2ccc(Cl)c(Cl)c2)C(C)C)o1 with its measured cytotoxicity at 70.5 h.
-14%

Annotate the compound O=C1OCCC1N1CCN(c2cnccn2)CC1 (stereo not given) with its measured cytotoxicity at 70.5 h.
-8.4%

Annotate the compound CS(=O)(=O)c1ccc(OCCNCc2ccc(F)cc2)cc1 with its measured cytotoxicity at 70.5 h.
-1.74%

Annotate the compound CC(=O)c1cc(CC(=O)NCc2ccc(CN(C)C)cc2)cs1 with its measured cytotoxicity at 70.5 h.
-7.31%

Annotate the compound CS(=O)(=O)N1CCC2(CCN(C(=O)c3cccnc3)CC2)C1 with its measured cytotoxicity at 70.5 h.
-7.54%

Annotate the compound Cc1ncccc1C(=O)Nc1cccc2c1C(=O)NC2 with its measured cytotoxicity at 70.5 h.
-2.21%

Annotate the compound CC(C)CCC(=O)NC(C)c1nnc2n1CCCCC2 (stereo not given) with its measured cytotoxicity at 70.5 h.
-6.87%

Annotate the compound CCOC(=O)Cn1c(=O)nc2n1C(=O)N(c1ccccc1)C2 with its measured cytotoxicity at 70.5 h.
8.85%

Annotate the compound O=c1c(S(=O)(=O)N2CCCC2)cccn1Cc1ccccc1Cl with its measured cytotoxicity at 70.5 h.
-6.09%

Annotate the compound O=C1CCC2(CCN(Cc3ccc(F)cc3Cl)CC2)CN1CCO with its measured cytotoxicity at 70.5 h.
12.9%

Annotate the compound COc1ccccc1OCc1cc(C(=O)NC[C@@H]2CCCN2)n[nH]1 with its measured cytotoxicity at 70.5 h.
-1.83%

* * *

Exercise: state measured cytotoxicity at 70.5 h for each of the compounds provided.
- EXPERIMENT_DESCRIPTION: Human HepG2 cell viability assay in 384 well format
- Assay type: toxicity, cell-based
- Parameters: dose 125 nL, time 70.5 hour; concentration not given beside the values
- ASSAY_SETUP: HepG2 cells, read-out: Inhibition
# number only, unit % dropped from output

Annotate the compound CCn1cc(NC(=O)C2CCN(Cc3noc(C(C)C)n3)CC2)cn1 with its measured cytotoxicity at 70.5 h.
0.996

Annotate the compound Cc1nc(N)ncc1C(=O)N1CCCC(CCc2ccccc2F)C1 (configuration not stated) with its measured cytotoxicity at 70.5 h.
17

Annotate the compound CN1CC(=O)N(c2ccccc2)CC12CCN(Cc1nccs1)C2 (configuration not stated) with its measured cytotoxicity at 70.5 h.
3.9

Annotate the compound O=C(CNC(=O)c1ccc(Cl)cc1)Nc1nccs1 with its measured cytotoxicity at 70.5 h.
20.2

Annotate the compound CC(C)c1n[nH]c(C2CN(C(=O)c3cnccn3)CCO2)n1 (configuration not stated) with its measured cytotoxicity at 70.5 h.
18.8

Annotate the compound CN(C(=O)Nc1ccncc1)C1CCN(c2ccccc2)C1=O (configuration not stated) with its measured cytotoxicity at 70.5 h.
-11.8

Annotate the compound COCCN(C)C[C@@H]1CN(C(=O)c2cccc(C#N)c2)C[C@@H]1CO with its measured cytotoxicity at 70.5 h.
12.6

Annotate the compound Cc1cc(Br)c(O)c(-c2nc(N3CCOCC3)sc2C)c1 with its measured cytotoxicity at 70.5 h.
5.07

Annotate the compound COCC1CN(Cc2ccc(C)o2)Cc2nnn(CC3CC3)c21 (configuration not stated) with its measured cytotoxicity at 70.5 h.
-5.7

Annotate the compound Cc1cc(Nc2ccc3c(c2)CC(=O)N3)nc(C2CC2)n1 with its measured cytotoxicity at 70.5 h.
-9.05

Annotate the compound CCOc1cc(/C=C/c2ncc(C(=O)O)s2)cc(Br)c1OC with its measured cytotoxicity at 70.5 h.
-10.4

Annotate the compound CN(CC1CC1)C(=O)CN1CCCC1c1cnn(C)c1 (configuration not stated) with its measured cytotoxicity at 70.5 h.
1.65

Annotate the compound Cc1ncc(S(=O)(=O)Nc2ccnn2C(C)C)[nH]1 with its measured cytotoxicity at 70.5 h.
3.96

Annotate the compound CS(=O)(=O)N1Cc2nccn2CC(CN2CCCC2)C1 (configuration not stated) with its measured cytotoxicity at 70.5 h.
-3.59

Annotate the compound CC(C)Oc1ncccc1CNC(=O)N1CCOCC1 with its measured cytotoxicity at 70.5 h.
-14.9

Annotate the compound O=C(NCC1CCCO1)C1CCN(Cc2nc(C3CC3)no2)CC1 (configuration not stated) with its measured cytotoxicity at 70.5 h.
3.81

Annotate the compound O=C(NC1CC1)C1CCCN(c2cccc(C(F)(F)F)n2)C1 (configuration not stated) with its measured cytotoxicity at 70.5 h.
-5.01

Annotate the compound CC[C@H]1CN2CC[C@H]1C[C@@H]2CNC(=O)c1ccco1 with its measured cytotoxicity at 70.5 h.
-1.78

Annotate the compound COCC(=O)N1C[C@H]2CNC[C@@]2(C(=O)NCc2cc(C)n[nH]2)C1 with its measured cytotoxicity at 70.5 h.
-5.27

Annotate the compound CCN1CC2(CCN(CCOCCO)CC2)CC(c2ccccc2)C1=O (configuration not stated) with its measured cytotoxicity at 70.5 h.
3.81

Annotate the compound Cc1ccc2nc(CN3CCC(O)(CN4CCCC4)CC3)cc(O)c2c1 with its measured cytotoxicity at 70.5 h.
-7.1

Annotate the compound CC(CNC(=O)NCc1ccoc1)N1CCc2sccc2C1 (configuration not stated) with its measured cytotoxicity at 70.5 h.
6.45

Annotate the compound O=C(c1cnccn1)N1CCn2cnc(COCC3CC3)c2C1 with its measured cytotoxicity at 70.5 h.
14.8

Annotate the compound Cc1cnn(C2CCCN(C(=O)CCc3ccncc3)C2)c1 (configuration not stated) with its measured cytotoxicity at 70.5 h.
-0.811

Annotate the compound Cc1nc(N2CCC3(CCCN(CCO)C3=O)C2)c2sccc2n1 (configuration not stated) with its measured cytotoxicity at 70.5 h.
-7.31

Annotate the compound CC(C)C(C)NC(=O)CNc1cc2c(cc1Cl)NC(=O)CO2 (configuration not stated) with its measured cytotoxicity at 70.5 h.
6.71

Annotate the compound CN1CCC(N(C)C(=O)CSc2ccc(F)c(F)c2)C1=O (configuration not stated) with its measured cytotoxicity at 70.5 h.
-2.06

Annotate the compound Cc1cccc(CN(Cc2ccccn2)Cc2ncc(C(C)(C)C)o2)c1 with its measured cytotoxicity at 70.5 h.
-11.5

Annotate the compound O=C(NCc1ccccn1)[C@@H]1COC[C@H]2CN(c3ncccn3)C[C@H]21 with its measured cytotoxicity at 70.5 h.
-6.07

Annotate the compound CC(C(=O)O)n1nc(C(F)(F)F)c(Cl)c1C1CC1 (configuration not stated) with its measured cytotoxicity at 70.5 h.
5.37

Annotate the compound CCOC(=O)C1(Cc2cccc(Cl)c2)CCCN(Cc2ncc[nH]2)C1 (configuration not stated) with its measured cytotoxicity at 70.5 h.
0.345

Annotate the compound CCNC(=O)N1CCC2(CC1)CCn1c(-c3ccccc3)cnc12 with its measured cytotoxicity at 70.5 h.
-3.37

Annotate the compound CCN(CC)C[C@H]1CN2CC[C@H]1C[C@@H]2CNC(=O)c1ccco1 with its measured cytotoxicity at 70.5 h.
-3.47

Annotate the compound CCOC(=O)N1CCN(C(=O)c2snnc2-c2ccccc2)CC1 with its measured cytotoxicity at 70.5 h.
-9.63

Annotate the compound O=C(N1CCN(c2ccccc2O)CC1)C1(O)Cc2ccccc2C1 with its measured cytotoxicity at 70.5 h.
0.667

Annotate the compound CN(C)C(=O)COC[C@]12COC[C@H]1CN(CC1CCC1)C2 with its measured cytotoxicity at 70.5 h.
-6.61

Annotate the compound COC(C(=O)NC1CCN(S(C)(=O)=O)CC1)c1ccccc1 (configuration not stated) with its measured cytotoxicity at 70.5 h.
15.6
